As shown below, each of these compounds has a reported pIC50 value.
Molecular target: recombinant human ACC2 (Homo sapiens (Human))
Sequence (O00763 27-2458): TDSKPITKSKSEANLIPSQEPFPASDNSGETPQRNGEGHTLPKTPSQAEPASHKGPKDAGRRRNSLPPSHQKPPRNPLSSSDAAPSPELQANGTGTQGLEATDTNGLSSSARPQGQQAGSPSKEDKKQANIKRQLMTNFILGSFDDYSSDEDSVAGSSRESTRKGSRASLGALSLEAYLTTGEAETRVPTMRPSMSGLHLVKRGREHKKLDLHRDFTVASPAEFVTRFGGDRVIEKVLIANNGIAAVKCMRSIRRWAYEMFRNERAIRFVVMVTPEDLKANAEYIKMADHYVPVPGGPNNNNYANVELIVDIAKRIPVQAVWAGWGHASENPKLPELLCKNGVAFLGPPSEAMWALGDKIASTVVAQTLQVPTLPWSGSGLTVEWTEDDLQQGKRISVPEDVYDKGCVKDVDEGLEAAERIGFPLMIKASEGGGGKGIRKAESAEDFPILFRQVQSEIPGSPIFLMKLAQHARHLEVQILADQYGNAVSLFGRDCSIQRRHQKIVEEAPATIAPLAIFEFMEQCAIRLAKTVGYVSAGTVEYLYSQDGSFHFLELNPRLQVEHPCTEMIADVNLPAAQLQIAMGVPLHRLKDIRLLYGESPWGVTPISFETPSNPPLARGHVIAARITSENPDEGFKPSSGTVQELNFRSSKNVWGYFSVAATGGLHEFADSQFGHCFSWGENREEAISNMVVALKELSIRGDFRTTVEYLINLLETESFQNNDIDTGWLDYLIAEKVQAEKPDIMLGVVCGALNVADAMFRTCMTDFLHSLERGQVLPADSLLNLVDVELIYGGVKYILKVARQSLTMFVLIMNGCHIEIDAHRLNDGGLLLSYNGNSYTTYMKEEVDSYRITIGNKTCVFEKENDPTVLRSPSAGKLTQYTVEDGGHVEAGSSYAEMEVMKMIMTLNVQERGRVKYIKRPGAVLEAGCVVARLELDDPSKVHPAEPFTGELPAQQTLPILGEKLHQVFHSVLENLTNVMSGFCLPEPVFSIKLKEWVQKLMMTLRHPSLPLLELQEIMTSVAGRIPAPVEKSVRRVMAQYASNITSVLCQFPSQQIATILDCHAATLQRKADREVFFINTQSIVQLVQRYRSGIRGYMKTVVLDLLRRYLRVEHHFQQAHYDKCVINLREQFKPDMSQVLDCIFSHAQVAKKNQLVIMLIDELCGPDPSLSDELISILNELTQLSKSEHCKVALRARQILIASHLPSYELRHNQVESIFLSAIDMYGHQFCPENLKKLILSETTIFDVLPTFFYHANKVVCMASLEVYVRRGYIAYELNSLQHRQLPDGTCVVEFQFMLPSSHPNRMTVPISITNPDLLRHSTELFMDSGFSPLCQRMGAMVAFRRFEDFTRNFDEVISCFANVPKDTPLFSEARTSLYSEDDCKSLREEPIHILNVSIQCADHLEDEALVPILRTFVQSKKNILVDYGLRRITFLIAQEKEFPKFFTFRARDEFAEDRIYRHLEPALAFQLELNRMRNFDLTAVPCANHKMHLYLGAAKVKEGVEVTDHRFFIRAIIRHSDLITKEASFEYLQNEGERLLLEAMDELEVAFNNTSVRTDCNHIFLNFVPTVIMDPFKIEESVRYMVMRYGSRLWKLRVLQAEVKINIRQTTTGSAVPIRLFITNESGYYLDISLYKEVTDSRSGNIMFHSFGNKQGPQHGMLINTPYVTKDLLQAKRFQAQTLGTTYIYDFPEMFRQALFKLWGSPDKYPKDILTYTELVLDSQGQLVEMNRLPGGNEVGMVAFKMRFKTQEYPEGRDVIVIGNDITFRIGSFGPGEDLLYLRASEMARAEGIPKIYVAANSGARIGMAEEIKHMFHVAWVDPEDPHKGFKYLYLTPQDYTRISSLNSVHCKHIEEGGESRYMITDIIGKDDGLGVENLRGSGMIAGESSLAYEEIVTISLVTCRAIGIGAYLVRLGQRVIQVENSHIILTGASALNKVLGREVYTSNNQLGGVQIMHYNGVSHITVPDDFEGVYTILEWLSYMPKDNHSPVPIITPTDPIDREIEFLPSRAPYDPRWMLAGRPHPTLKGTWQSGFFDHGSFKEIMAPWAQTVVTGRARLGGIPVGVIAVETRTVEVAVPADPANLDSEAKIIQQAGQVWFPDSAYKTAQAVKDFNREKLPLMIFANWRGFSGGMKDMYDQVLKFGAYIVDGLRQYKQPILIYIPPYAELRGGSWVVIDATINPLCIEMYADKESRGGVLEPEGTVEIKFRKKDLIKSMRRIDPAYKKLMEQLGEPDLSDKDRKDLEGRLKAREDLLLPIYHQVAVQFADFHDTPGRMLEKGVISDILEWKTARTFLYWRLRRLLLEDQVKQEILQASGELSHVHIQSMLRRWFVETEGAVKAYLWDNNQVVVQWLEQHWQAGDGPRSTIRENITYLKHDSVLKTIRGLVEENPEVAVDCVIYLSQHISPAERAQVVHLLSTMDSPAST
Experiment: Measurement of inhibitory activity on human ACC2 (MALDI-TOF MS, acetyl CoA to malonyl CoA conversion)
Format: biochemical
Conditions: Tables 155-159
Kindly note that pIC50 refers to -log10 of the concentration in mol/L and answer with the value alone.

Some solved cases for reference:
CC(=O)N[C@@H](C)CO[C@H]1C[C@H](COc2ncnc(OCc3ncco3)c2Cl)C1; 6.09
CC(=O)N[C@@H](C)CO[C@H]1C[C@H](COc2ccc3nc(N4CCC(F)(F)CC4)sc3n2)C1; 7.44
CC(=O)N[C@@H](C)CO[C@H]1C[C@H](COc2nc3sc(N4CC(F)C4)nc3cc2F)C1; 7.24

Look up pIC50 with recombinant human ACC2 (Homo sapiens (Human)) for this compound: `CC(=O)N[C@@H](C)CC[C@@H]1CC[C@@H](Oc2nc3c(F)cc(OCC(F)F)c(F)c3n2C)CO1` 8.30
